Source: paper PMC12368479

Listing of recorded pIC50 by entry.
# SUBJECT_OF_TEST: clathrin heavy chain NTD (amino acids 1–364) – amphiphysin 1 B/C domain protein–protein interaction (NTD‐PPI) (Homo sapiens)
# Construct: GST‐tagged clathrin heavy chain NTD (amino acids 1–364); made in house
# Sequence (Q00610 1-364): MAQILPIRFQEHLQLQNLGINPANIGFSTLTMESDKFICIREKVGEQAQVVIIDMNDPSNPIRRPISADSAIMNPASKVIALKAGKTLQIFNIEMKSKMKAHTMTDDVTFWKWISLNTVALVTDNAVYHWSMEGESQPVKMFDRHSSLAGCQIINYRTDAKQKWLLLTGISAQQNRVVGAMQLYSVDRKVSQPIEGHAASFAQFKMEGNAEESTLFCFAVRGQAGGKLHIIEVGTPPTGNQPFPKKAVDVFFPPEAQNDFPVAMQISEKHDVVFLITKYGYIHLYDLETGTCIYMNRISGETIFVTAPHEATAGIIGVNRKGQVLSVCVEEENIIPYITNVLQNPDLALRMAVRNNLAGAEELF
# METHOD: ELISA-based clathrin inhibitor binding assay (NTD-PPI)
# PARTICULARS: Table 4, library 4; ELISA, average of duplicate measurements (n = 2); read-out: NTD‐PPI IC50
// scale note: pIC50 = -log10(conc_M); give the bare number

Exercise: Output measured pIC50 for this item: O=C1N=C(NS(=O)(=O)c2cccc3ccccc23)S/C1=C\c1ccc(CO)o1 [compound 51]
Solution: 5.20

Exercise: Output measured pIC50 for this item: O=C1N=C(NS(=O)(=O)c2cccc3ccccc23)S/C1=C\c1ccc2c(c1)OCO2 [compound 56]
Solution: 5.49

Exercise: Output measured pIC50 for this item: O=C1N=C(NS(=O)(=O)c2cccc3ccccc23)S/C1=C\c1ccc(Cl)o1 [compound 49]
Solution: 5.48

Next:
Exercise: Output measured pIC50 for this item: O=C1N=C(NS(=O)(=O)c2cccc3ccccc23)S/C1=C\c1c[nH]c2ccccc12 [compound 60]
Solution: 5.49

Exercise: Output measured pIC50 for this item: O=C1N=C(NS(=O)(=O)c2cccc3ccccc23)S/C1=C\c1ccc2[nH]ccc2c1 [compound 59]
Solution: 5.44

Exercise: Output measured pIC50 for this item: CN1CCOc2cc(/C=C3\SC(NS(=O)(=O)c4cccc5ccccc45)=NC3=O)ccc21 [compound 53]
Solution: 5.48

Exercise: Output measured pIC50 for this item: O=C1N=C(NS(=O)(=O)c2cccc3ccccc23)S/C1=C\c1ccco1 [compound 48]
Solution: 5.44

Exercise: Output measured pIC50 for this item: O=C1N=C(NS(=O)(=O)c2cccc3ccccc23)S/C1=C\c1c[nH]c2cc(Br)ccc12 [compound 64]
Solution: 5.47

Exercise: Output measured pIC50 for this item: O=C1N=C(NS(=O)(=O)c2cccc3ccccc23)S/C1=C\c1ccc[nH]1 [compound 47]
Solution: 5.28

Exercise: Output measured pIC50 for this item: O=C1N=C(NS(=O)(=O)c2cccc3ccccc23)S/C1=C\c1c[nH]c2ccc(Br)cc12 [compound 65]
Solution: 5.54

Exercise: Output measured pIC50 for this item: O=C1N=C(NS(=O)(=O)c2cccc3ccccc23)S/C1=C\c1ccc2c(c1)CCO2 [compound 57]
Solution: 5.49

Exercise: Output measured pIC50 for this item: O=C1COc2ccc(/C=C3\SC(NS(=O)(=O)c4cccc5ccccc45)=NC3=O)cc2N1 [compound 52]
Solution: 5.48

----------
Listing of recorded pIC50 by entry.
# SUBJECT_OF_TEST: full length human Dynamin I (Homo sapiens, UniProt Q05193)
# Construct: full length human Dynamin I expressed in Sf21 insect cells; made in house; host or cells: Sf21 insect cells
# Sequence (Q05193 whole entry): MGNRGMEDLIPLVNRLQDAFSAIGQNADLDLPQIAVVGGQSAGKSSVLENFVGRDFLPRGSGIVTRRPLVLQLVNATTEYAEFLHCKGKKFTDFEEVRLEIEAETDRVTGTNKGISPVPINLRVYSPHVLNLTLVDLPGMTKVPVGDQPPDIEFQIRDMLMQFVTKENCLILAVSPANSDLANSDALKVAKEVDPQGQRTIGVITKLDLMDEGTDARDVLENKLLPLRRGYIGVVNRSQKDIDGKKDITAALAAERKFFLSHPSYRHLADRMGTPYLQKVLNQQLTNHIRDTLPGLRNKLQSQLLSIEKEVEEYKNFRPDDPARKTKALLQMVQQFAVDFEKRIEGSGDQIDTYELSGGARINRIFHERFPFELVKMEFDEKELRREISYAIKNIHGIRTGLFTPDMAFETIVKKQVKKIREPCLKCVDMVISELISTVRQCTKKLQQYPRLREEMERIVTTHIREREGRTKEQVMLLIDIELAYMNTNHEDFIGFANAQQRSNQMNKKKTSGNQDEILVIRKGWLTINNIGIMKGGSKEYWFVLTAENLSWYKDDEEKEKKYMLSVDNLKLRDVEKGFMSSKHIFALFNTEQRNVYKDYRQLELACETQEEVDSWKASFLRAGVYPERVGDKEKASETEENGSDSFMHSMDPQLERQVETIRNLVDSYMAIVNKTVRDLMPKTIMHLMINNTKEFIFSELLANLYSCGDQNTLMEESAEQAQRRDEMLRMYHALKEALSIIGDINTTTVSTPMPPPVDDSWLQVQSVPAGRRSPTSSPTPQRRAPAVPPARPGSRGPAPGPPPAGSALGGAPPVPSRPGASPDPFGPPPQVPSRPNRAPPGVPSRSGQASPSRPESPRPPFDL
# METHOD: Dynamin GTPase activity, Malachite Green phosphate detection assay
# Format: biochemical
# PARTICULARS: Table 5; dynamin GTPase; n = 1 or n = 2 as footnoted; NA = not active at 100 μM; read-out: Dynamin 1 IC50
# Protocol: Dynamin GTPase activity was determined in vitro using the Malachite Green phosphate detection absorbance‐based assay within a 96‐well plate format as described previously. The enzyme source was full length human Dynamin I expressed in Sf21 insect cells and affinity‐purified on GST‐Amph2‐SH3 (rat Amphiphysin 2 (494–588)).^[ [56] ^]
// scale note: pIC50 = -log10(conc_M); give the bare number

Exercise: Output measured pIC50 for this item: O=C1N=C(NS(=O)(=O)c2cccc3ccccc23)S/C1=C\c1ccc([N+](=O)[O-])cc1
Solution: 4.25

Next:
Exercise: Output measured pIC50 for this item: O=C1N=C(NS(=O)(=O)c2cccc3ccccc23)S/C1=C\c1ccc2c(c1)OCCO2
Solution: 4.22

Exercise: Output measured pIC50 for this item: O=C1N=C(NS(=O)(=O)c2cccc3ccccc23)S/C1=C\c1cn(S(=O)(=O)c2ccccc2)c2ccccc12
Solution: 4.00

Exercise: Output measured pIC50 for this item: O=C1N=C(NS(=O)(=O)c2cccc3ccccc23)SC1=Cc1ccc(-c2ccccc2)cc1
Solution: 4.07
